Experiment description: Single ascending dose study in healthy subjects, pharmacokinetics of compound of Formula I
Type: in vivo, human
Test parameters: human, plasma, single oral dose 10 mg, geometric mean (% CV), read-out: CLr (renal clearance) (converted)
Value type: CL renal (mL/min)

>>> df
                              line_notation  test_result
0  CC(=O)Nc1nc(F)c(CN2CC[C@H](OCc3noc(C)n3)C[C@@H]2C)s1         20.3

====

Experiment description: Single ascending dose study in healthy subjects, pharmacokinetics of compound of Formula I
Type: in vivo, human
Test parameters: human, plasma, mean, single oral dose 0.6 mg, 12 h
Value type: concentration at 12 h (ng/mL)

>>> df
                                   molecule             value_type  test_result
0  CC(=O)Nc1nc(F)c(CN2CC[C@H](OCc3noc(C)n3)C[C@@H]2C)s1 [compound of Formula I]  concentration at 12 h         1.09
